Form field: Plant response rating, Soybean (one value per entry).
Tested on: soybean
PROCEDURE TEXT: Test B pre/postemergence soybean
Assay type: in vivo, Glycine max
STUDY CONDITIONS: Preemergence, Rate 500 g/ha; scale of 0 to 10 where 0 is no effect and 10 is complete control
Format: numeric value only, no unit, no commentary.

COMPOUND	Plant response rating, Soybean
CC(C)N(C(=O)n1oc(=O)n(CCF)c1=O)c1ccc(F)cc1F	9

Problem: Write Plant response rating, Soybean of CC(C)N(C(=O)n1oc(=O)n(C2CCCC2)c1=O)c1ccccc1 ; system used: soybean
Solution: 0

Problem: Write Plant response rating, Soybean of CC(C)N(C(=O)n1oc(=O)n(-c2cccnc2)c1=O)c1ccccc1 ; system used: soybean
Solution: 0

Problem: Write Plant response rating, Soybean of CCOC(=O)C=CCn1c(=O)on(C(=O)N(c2ccc(F)cc2)C(C)C)c1=O ; system used: soybean
Solution: 4

Problem: Write Plant response rating, Soybean of CCc1ccc(N(C(=O)n2oc(=O)n(-c3ccccc3C)c2=O)C(C)C)cc1 ; system used: soybean
Solution: 0

----------
System: wheat
PROCEDURE TEXT: Test B pre/postemergence wheat
Assay type: in vivo, Triticum aestivum
STUDY CONDITIONS: Postemergence, Rate 62 g/ha; scale of 0 to 10, 0 is no effect, 10 is complete control
Procedure: […] At the same time, these crop and weed species were also treated with postemergence applications of test chemicals formulated in the same manner. […] Treated plants and controls were maintained in a greenhouse for twelve to sixteen days, after which all species were compared to controls and visually evaluated. […]
EXPERIMENTAL READOUT: Wheat plant response rating
Format: numeric value only, no unit, no commentary.

Below are worked cases with known answers.
COMPOUND	SYSTEM	MEASURED NUMBER
CC(C)N(C(=O)n1oc(=O)n(CCCCF)c1=O)c1ccc(Cl)cc1	wheat	0
CC(Cl)=CCn1c(=O)on(C(=O)N(c2ccc(F)cc2F)C(C)C)c1=O	wheat	0
CC(=O)C(C)n1c(=O)on(C(=O)N(c2ccc(F)cc2F)C(C)C)c1=O (centres unmarked)	wheat	0
CC(C)N(C(=O)n1oc(=O)n(CC2OCCO2)c1=O)c1ccc(F)cc1F	wheat	2

The record that follows has no Wheat plant response rating shown yet.
Problem: Write Wheat plant response rating of CC(C)N(C(=O)n1oc(=O)n(CCC(F)(F)F)c1=O)c1ccc(F)cc1F ; system used: wheat
Solution: 0

----------
Tested on: soybean
PROCEDURE TEXT: Test B pre/postemergence soybean
Assay type: in vivo, Glycine max
STUDY CONDITIONS: Preemergence, Rate 125 g/ha; scale of 0 to 10 where 0 is no effect and 10 is complete control
Procedure: […] At the same time, these crop and weed species were also treated with postemergence applications of test chemicals formulated in the same manner. […] Treated plants and controls were maintained in a greenhouse for twelve to sixteen days, after which all species were compared to controls and visually evaluated. […]
EXPERIMENTAL READOUT: Plant response rating, Soybean
Format: numeric value only, no unit, no commentary.

MOLECULE	SYSTEM	Plant response rating, Soybean
CC(C)N(C(=O)n1oc(=O)n(CCN(C)C(=O)c2ccccc2)c1=O)c1ccc(F)cc1	soybean	0
CC(C)N(C(=O)n1oc(=O)n(C[Si](C)(C)c2ccccc2)c1=O)c1ccc(Cl)cc1	soybean	0

Problem: Write Plant response rating, Soybean of CC(C)N(C(=O)n1oc(=O)n(CBr)c1=O)c1ccccc1 ; system used: soybean
Solution: 0

Problem: Write Plant response rating, Soybean of COP(=O)(CCn1c(=O)on(C(=O)N(c2ccccc2)C(C)C)c1=O)OC ; system used: soybean
Solution: 0

Problem: Write Plant response rating, Soybean of CC(C)N(C(=O)n1oc(=O)n(C(C)C)c1=O)c1ccc(Br)cc1 ; system used: soybean
Solution: 2

Problem: Write Plant response rating, Soybean of COC(C)n1c(=O)on(C(=O)N(c2ccccc2)C(C)C)c1=O (stereo not drawn) ; system used: soybean
Solution: 0
